// data source = patent US20160108049A1

Target: PDE4B1 (Homo sapiens)
Construct: made in house; host or cells: SF21 insect cells (baculovirus; virus made in SF9 cells, pCR-Bac vector)
Assay: Inhibition of PDE4 activity (PDE4B1, SPA assay)
Type: biochemical
Conditions: recombinant PDE4B1, 0.5 μM cAMP; read-out: PDE4B1 Inhibitory values measured as -logIC50 (converted)
Procedure: Method for Measuring Inhibition of PDE4 Activity The PDE4B1 (GB no. L20966) was a gift of Prof. M. Conti (Stanford University, USA). […] PDE4B1 activities were measured in a 96-well platform using SPA (scintillation proximity assay) yttrium silicate beads (RPNQ1050 from GE Healthcare). […] Once the beads were sedimented (>30 min), the MTP's (micro titerplate) were analyzed in commercially available luminescence detection devices. […]
Please respond with reported IC50 for every item in the list.

Ask: Item under review: `COc1ccc(C2=NN(C3CCN(C(=O)[C@@H](Cc4ccc(Br)cc4)NC(=O)c4c[nH]c5c(-c6c(OCC7CC7)ccc7c6OCO7)ncnc45)CC3)C(=O)[C@@H]3CCCC[C@H]23)cc1OC` . Reported IC50?
Result: 1 to 10 nM

Ask: GET /values?readout=IC50&item= `COc1ccc(C2=NN(C3CCN(C(=O)[C@@H](Cc4cn(C)c5ccccc45)NC(=O)c4c[nH]c5c(-c6c(OCC7CC7)ccc7c6OCO7)ncnc45)CC3)C(=O)[C@@H]3CCCC[C@H]23)cc1OC`
Result: < 1 nM

Ask: IC50 for `COc1ccc(C2=NN(C3CCN(C(=O)[C@@H](Cc4ccccc4Cl)NC(=O)c4c(C)[nH]c5c(-c6c(OCC7CC7)ccc7c6OCO7)ncnc45)CC3)C(=O)[C@@H]3CCCC[C@H]23)cc1OC` ?
Result: < 1 nM

---

Target: PDE4B1 (Homo sapiens)
Construct: made in house; host or cells: SF21 insect cells (baculovirus; virus made in SF9 cells, pCR-Bac vector)
Assay: Inhibition of PDE4 activity (PDE4B1, SPA assay)
Format: biochemical
Details: recombinant PDE4B1, 0.5 μM cAMP; read-out: PDE4B1 Inhibitory values measured as -logIC50 (converted)
ASSAY_METRIC: IC50

Ask: Would you kindly share the measured IC50 for `CCC1(CC)CC(c2ccc(OC)c(OC)c2)=NN(C2CCN(C(=O)[C@@H](Cc3ccccc3)NC(=O)c3c[nH]c4c(-c5c(OCC6CC6)ccc6c5OCO6)ncnc34)CC2)C1=O` ?
Result: 1 to 10 nM

Ask: # lookup: IC50 of `COc1ccc(C2=NN(C3CCN(C(=O)[C@@H](Cc4ccccc4)NC(=O)c4c[nH]c5c(-c6c(OCC7CC7)ccc7c6OCO7)ncnc45)CC3)C(=O)C(C)(C)C2)cc1OC`
Result: < 1 nM

Ask: For the compound `COc1ccc(C2=NN(C3CCN(C(=O)[C@@H](Cc4ccncc4)NC(=O)c4c[nH]c5c(-c6c(OCC7CC7)ccc7c6OCO7)ncnc45)CC3)C(=O)[C@@H]3CCCC[C@H]23)cc1OC` , what IC50 is on record?
Result: < 1 nM

---

Target: PDE4B1 (Homo sapiens, UniProt Q07343)
Construct: made in house; host or cells: SF21 insect cells (baculovirus; virus made in SF9 cells, pCR-Bac vector)
Sequence (Q07343 whole entry): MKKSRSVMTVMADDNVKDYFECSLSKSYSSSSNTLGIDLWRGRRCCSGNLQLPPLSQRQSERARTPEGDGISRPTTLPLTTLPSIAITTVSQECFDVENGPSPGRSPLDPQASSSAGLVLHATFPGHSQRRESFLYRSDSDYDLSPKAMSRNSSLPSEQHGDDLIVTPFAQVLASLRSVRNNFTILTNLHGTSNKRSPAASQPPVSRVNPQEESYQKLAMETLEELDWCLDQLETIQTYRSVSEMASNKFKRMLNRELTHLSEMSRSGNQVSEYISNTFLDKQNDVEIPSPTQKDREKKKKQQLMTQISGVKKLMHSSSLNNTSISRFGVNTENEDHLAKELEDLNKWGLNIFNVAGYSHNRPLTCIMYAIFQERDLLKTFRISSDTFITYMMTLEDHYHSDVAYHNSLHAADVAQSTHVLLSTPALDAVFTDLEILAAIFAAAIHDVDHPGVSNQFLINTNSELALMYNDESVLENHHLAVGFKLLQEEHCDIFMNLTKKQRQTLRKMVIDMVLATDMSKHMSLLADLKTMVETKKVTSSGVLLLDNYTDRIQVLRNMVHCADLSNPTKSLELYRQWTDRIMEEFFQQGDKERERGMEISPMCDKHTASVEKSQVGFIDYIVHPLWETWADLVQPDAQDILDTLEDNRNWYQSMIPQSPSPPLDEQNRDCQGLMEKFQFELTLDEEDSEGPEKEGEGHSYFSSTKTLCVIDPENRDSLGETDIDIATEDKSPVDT
Test: Inhibition of PDE4 activity (PDE4B1, SPA assay)
Assay type: biochemical
Conditions: recombinant PDE4B1, 0.5 μM cAMP; read-out: PDE4B1 Inhibitory values measured as -logIC50 (converted)
ASSAY_METRIC: IC50

Ask: Provide the documented IC50 with PDE4B1 (Homo sapiens, UniProt Q07343) as the system for `COc1ccc(C2=NN(C3CCN(C(=O)CNC(=O)c4c[nH]c5c(-c6c(OCC7CC7)ccc7c6OCO7)ncnc45)CC3)C(=O)[C@@H]3CCCC[C@H]23)cc1OC`
Result: < 1 nM

Ask: So what IC50 did `COc1ccc(C2=NN(C3CCN(C(=O)[C@H](Cn4cccn4)NC(=O)c4c[nH]c5c(-c6c(OCC7CC7)ccc7c6OCO7)ncnc45)CC3)C(=O)[C@@H]3CCCC[C@H]23)cc1OC` get with PDE4B1 (Homo sapiens, UniProt Q07343)?
Result: 1 to 10 nM

Ask: Form entry - test system: PDE4B1 (Homo sapiens, UniProt Q07343); read-out: IC50; molecule: `COc1ccc(C2=NN(C3CCN(C(=O)C[C@@H](Cc4ccccc4)NC(=O)c4c[nH]c5c(-c6c(OCC7CC7)ccc7c6OCO7)ncnc45)CC3)C(=O)[C@@H]3CCCC[C@H]23)cc1OC`
Result: 1 to 10 nM

Ask: Lookup: IC50 / PDE4B1 (Homo sapiens, UniProt Q07343) / `COc1ccc(C2=NN(C3CCN(C(=O)[C@H](Cc4ccccc4)NC(=O)c4c[nH]c5c(-c6c(OCC7CC7)ccc7c6OCO7)ncnc45)CC3)C(=O)[C@H]3CCCC[C@@H]23)cc1OC`
Result: > 10 nM

Ask: Item: `COc1ccc(C2=NN(C3CCN(C(=O)[C@H](Cc4c[nH]cn4)NC(=O)c4c[nH]c5c(-c6c(OCC7CC7)ccc7c6OCO7)ncnc45)CC3)C(=O)[C@@H]3CCCC[C@H]23)cc1OC` Test system: PDE4B1 (Homo sapiens, UniProt Q07343) Read-out: IC50 Value: ?
Result: < 1 nM

Ask: What measured IC50 is associated with `COc1ccc(C2=NN(C3CCN(C(=O)[C@H](Cc4ccccn4)NC(=O)c4c(C)[nH]c5c(-c6c(OCC7CC7)ccc7c6OCO7)ncnc45)CC3)C(=O)[C@@H]3CCCC[C@H]23)cc1OC` on PDE4B1 (Homo sapiens, UniProt Q07343)?
Result: 1 to 10 nM

Ask: GET /values?readout=IC50&system=PDE4B1 (Homo sapiens, UniProt Q07343)&item= `COc1ccc(C2=NN(C3CCN(C(=O)[C@@H](CCC(=O)O)NC(=O)c4c[nH]c5c(-c6c(OCC7CC7)ccc7c6OCO7)ncnc45)CC3)C(=O)[C@@H]3CCCC[C@H]23)cc1OC`
Result: 1 to 10 nM

Ask: PDE4B1 (Homo sapiens, UniProt Q07343) / IC50 / `COc1ccc(C2=NN(C3CCN(C(=O)[C@H](NC(=O)c4c(C)[nH]c5c(-c6c(OCC7CC7)ccc7c6OCO7)ncnc45)[C@H](C)c4ccccc4)CC3)C(=O)[C@@H]3CCCC[C@H]23)cc1OC` : value?
Result: < 1 nM

Ask: For PDE4B1 (Homo sapiens, UniProt Q07343), provide IC50 of `COc1ccc(C2=NN(C3CCN(C(=O)[C@@H](Cc4ccccc4)NC(=O)c4c(C)[nH]c5c(-c6c(OCC7CC7)ccc7c6OCO7)ncnc45)CC3)C(=O)[C@@H]3CCCC[C@H]23)cc1OC` please.
Result: 1 to 10 nM

Ask: Give recorded IC50 with PDE4B1 (Homo sapiens, UniProt Q07343) for the following molecule: `COc1cc(OCC2CC2)c(-c2ncnc3c(C(=O)N[C@@H](Cc4cccc(C)c4)C(=O)N4CCC(N5N=C(c6ccc(OC)c(OC)c6)[C@H]6CCCC[C@H]6C5=O)CC4)c(C)[nH]c23)cc1F`
Result: 1 to 10 nM
